# measured-target: T1, Bbc1, P47068
# T1 sequence (P47068 1-78, looked up): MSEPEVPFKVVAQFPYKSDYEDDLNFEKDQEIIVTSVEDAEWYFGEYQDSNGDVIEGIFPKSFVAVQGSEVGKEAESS
# test-details: SPOT array
# test-context: median of control spots 796
// reported SPOT intensity for each item listed
Answer as a number with no unit attached.

Some solved entries appear below for comparison.
INSERT INTO measurements (binder, test_value) VALUES
  ('DLPLPDLPPEPPTEL', 0),
  ('NPTKSPPPPPSPSTM', 0),
  ('GKKVRPLLVLLLSRA', 67),
  ('DTFLPPPPPPPSNFE', 0),
  ('PVLPPPRSPNRPTLS', 151),
  ('DFTLPPPPPPPGLDE', 0);

Here is another binder to look at.
Exercise: Bench note: what SPOT intensity did "PSRRAPLQLPQLVNK" show?
Solution: 12
